Every entry's value here was drawn from patent US20250257130A1.

- testedTarget: T1, human ROR1 on cells (HEK293T-hROR1, PANC-1, A549) (human, UniProt Q01973 30-937)
- T1 construct: whole, on cells; one molecule for the three cell lines; also called huROR1; cell surface ROR1
- T1 sequence (Q01973 30-937): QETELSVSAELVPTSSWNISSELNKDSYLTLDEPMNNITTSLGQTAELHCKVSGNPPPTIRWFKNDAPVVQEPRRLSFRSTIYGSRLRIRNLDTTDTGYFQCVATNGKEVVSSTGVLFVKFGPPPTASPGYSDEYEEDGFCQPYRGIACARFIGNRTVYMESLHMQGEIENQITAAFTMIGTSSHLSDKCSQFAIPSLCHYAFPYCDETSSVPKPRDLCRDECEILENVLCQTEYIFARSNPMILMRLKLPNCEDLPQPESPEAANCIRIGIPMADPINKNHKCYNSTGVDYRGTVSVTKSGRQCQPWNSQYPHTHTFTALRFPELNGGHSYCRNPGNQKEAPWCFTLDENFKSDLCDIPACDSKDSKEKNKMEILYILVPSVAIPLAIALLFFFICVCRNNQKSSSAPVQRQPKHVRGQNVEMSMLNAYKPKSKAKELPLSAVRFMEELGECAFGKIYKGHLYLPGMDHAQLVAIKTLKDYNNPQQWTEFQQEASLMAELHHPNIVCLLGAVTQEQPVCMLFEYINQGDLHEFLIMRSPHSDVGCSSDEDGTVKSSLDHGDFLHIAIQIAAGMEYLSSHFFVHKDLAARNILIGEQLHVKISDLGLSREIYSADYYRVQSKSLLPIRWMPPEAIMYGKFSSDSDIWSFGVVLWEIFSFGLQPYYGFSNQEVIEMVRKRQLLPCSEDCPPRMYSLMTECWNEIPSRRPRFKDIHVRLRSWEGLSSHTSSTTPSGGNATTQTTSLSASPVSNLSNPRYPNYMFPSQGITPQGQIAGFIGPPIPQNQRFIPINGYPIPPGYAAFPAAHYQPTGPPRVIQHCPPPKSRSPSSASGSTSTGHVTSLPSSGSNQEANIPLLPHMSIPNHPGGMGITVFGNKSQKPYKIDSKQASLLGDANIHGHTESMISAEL
- protocolDetails: flow cytometry, PANC-1 cells
quantityMeasured: Max

binder | quantityMeasured | endpointValue
PR005344 (antibody, human IgG1, V domains shown, HCAb (heavy chain-only, human IgG1 Fc), no light chain) VH: EVQLVESGGGLVKPGGSLRLSCAASGFTFSDYYMSWIRQAPGKGLEWISYISNSSSSISYANSVKGRFTVSRDNAKNSLYLQMNSLRAEDTALYYCARSPRGAFYEDFDYWGQGTLVTVSS | Max | 12400
PR005349 (antibody, human IgG1, V domains shown, HCAb (heavy chain-only, human IgG1 Fc), no light chain) VH: EVQLVESGGGLVKPGGSLRLSCAASGFTFSDYYMSWIRQAPGKGLEWISYISNSSSSISYANSVKGRFTVSRDNAKNSLYLQMNSLRAEDTALYYCARSPRSAFYEDFDYWGQGTLVTVSS | Max | 27100
